Exercise: state measured pIC50 for each of the molecules provided.
biological target: UniProtKB Q16769; test: Fluorometric (fluorescent) assay of hQC inhibition, IC50; assay type: biochemical; conditions: hQC inhibition; read-out: IC50
The scale used: pIC50 is minus the common logarithm of the concentration in molar units.

Incoming: Using the record for CCOC(=O)C1CCCCC1n1nnnc1C(Nc1ccc2[nH]cnc2c1)c1ccccc1OC (stereo not shown) , report its pIC50.
Outgoing: 5.07

Incoming: Could you do the same for COC(=O)c1cccc(C(Nc2ccc3[nH]cnc3c2)c2nnnn2CC2CCCO2)c1 (stereo not shown) , please?
Outgoing: 5.24

Incoming: Please answer likewise for Clc1ccc(Cn2nnnc2C(Nc2ccc3[nH]cnc3c2)c2ccc3c(c2)OCO3)cc1 (stereo not shown)
Outgoing: 6.40

Incoming: Moving on to the next molecule: CCOC(=O)C1CCCCC1n1nnnc1C(Nc1ccc2[nH]cnc2c1)c1ccc(SC)cc1 (stereo not shown)
Outgoing: 5.40

Incoming: Cool, now O=C(Cn1nnnc1C(Nc1ccc2[nH]cnc2c1)c1cccs1)N1CCc2ccccc2C1 (stereo not shown)
Outgoing: 5.07

Incoming: Lookup Brc1cc(Br)cc(C(Nc2ccc3[nH]cnc3c2)c2nnnn2-c2ccc3c(c2)OCCO3)c1 (stereo not shown)
Outgoing: 5.40

Incoming: And then CC1(C)OCC(Cn2nnnc2C(Nc2ccc3[nH]cnc3c2)c2cnc3ccccc3c2)O1 (stereo not shown) , what is it?
Outgoing: 5.31

Incoming: How about this molecule: Oc1cccc(C(Nc2ccc3[nH]cnc3c2)c2nnnn2CC2CCCO2)c1 (stereo not shown)
Outgoing: 5.03

Incoming: Also check CCOC(=O)C1CCCCC1n1nnnc1C(Nc1ccc2[nH]cnc2c1)c1cccc(C(=O)OC)c1 (stereo not shown)
Outgoing: 5.24

Incoming: Moving on to the next molecule: O=C(Cn1nnnc1C(Nc1ccc2[nH]cnc2c1)c1ccc(Br)cc1)NCCc1c[nH]c2ccccc12 (stereo not shown)
Outgoing: 5.66

Incoming: Queued: Brc1cc(Br)cc(C(Nc2ccc3[nH]cnc3c2)c2nnnn2-c2ccccc2OCc2ccccc2)c1 (stereo not shown)
Outgoing: 5.31

Incoming: Cool, now CC(C)(C)c1ccc(-n2nnnc2C(Nc2ccc3[nH]cnc3c2)c2ccc3nsnc3c2)cc1 (stereo not shown)
Outgoing: 5.40

Incoming: Continue with Clc1ccccc1Cn1nnnc1C(Nc1ccc2[nH]cnc2c1)c1cccnc1 (stereo not shown)
Outgoing: 5.07

Incoming: Input Cc1cc(C(Nc2ccc3[nH]cnc3c2)c2nnnn2CC2COC(C)(C)O2)cc(C)c1O (stereo not shown)
Outgoing: 5.24

Incoming: Quick one: Brc1cc(Br)cc(C(Nc2ccc3[nH]cnc3c2)c2nnnn2Cc2ccccc2)c1 (stereo not shown)
Outgoing: 5.89

Incoming: Now consider CCOC(=O)C1CCCCC1n1nnnc1C(Nc1ccc2[nH]cnc2c1)c1csc2ccccc12 (stereo not shown) .
Outgoing: 5.89

---

Exercise: state measured pIC50 for each of the compounds provided.
target: hQC (Homo sapiens); assay: Fluorometric (fluorescent) assay of hQC inhibition, IC50; assay type: biochemical; settings: hQC inhibition; read-out: IC50
Sequence (Q16769 29-361): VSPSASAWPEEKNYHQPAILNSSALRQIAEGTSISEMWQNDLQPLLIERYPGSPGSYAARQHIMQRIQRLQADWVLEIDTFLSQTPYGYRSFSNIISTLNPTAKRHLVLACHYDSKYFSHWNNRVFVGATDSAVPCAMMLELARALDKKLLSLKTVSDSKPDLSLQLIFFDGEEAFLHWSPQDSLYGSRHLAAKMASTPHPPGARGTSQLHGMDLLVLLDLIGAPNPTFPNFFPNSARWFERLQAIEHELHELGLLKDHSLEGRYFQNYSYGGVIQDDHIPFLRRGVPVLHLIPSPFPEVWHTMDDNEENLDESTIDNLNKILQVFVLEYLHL
// pIC50 is dimensionless: -log10 of concentration (M)

Incoming: Name the recorded pIC50 for CCOC(=O)C1CCCCC1n1nnnc1C(Nc1ccc2[nH]cnc2c1)c1ccc(C)c(C)c1 (stereo not shown) .
Outgoing: 5.31

Incoming: Cool, now O=c1c(C(Nc2ccc3[nH]cnc3c2)c2nnnn2CC2CCCO2)coc2ccccc12 (stereo not shown)
Outgoing: 5.03

Incoming: Also, O=[N+]([O-])c1ccc(-n2nnnc2C(Nc2ccc3[nH]cnc3c2)c2csc3ccccc23)cc1 (stereo not shown) please.
Outgoing: 5.07

Incoming: What about this compound? CC1(C)OCC(Cn2nnnc2C(Nc2ccc3[nH]cnc3c2)c2ccc(Cl)c([N+](=O)[O-])c2)O1 (stereo not shown)
Outgoing: 5.07

Incoming: Then this compound: c1ccc(C(c2ccccc2)n2nnnc2C(Nc2ccc3[nH]cnc3c2)c2cccnc2)cc1 (stereo not shown)
Outgoing: 5.03

Incoming: And what about the compound COc1ccccc1C(Nc1ccc2[nH]cnc2c1)c1nnnn1Cc1ccccc1Cl (stereo not shown) ?
Outgoing: 5.51

Incoming: Also, CN(C)c1ccc(C(Nc2ccc3[nH]cnc3c2)c2nnnn2Cc2cccnc2)cc1 (stereo not shown) please.
Outgoing: 5.24

Incoming: Entry to check: O=C(Cn1nnnc1C(Nc1ccc2[nH]cnc2c1)c1ccc(Br)cc1)N1CCc2ccccc2C1 (stereo not shown)
Outgoing: 5.66

Incoming: Also check Clc1ccccc1Cn1nnnc1C(Nc1ccc2[nH]cnc2c1)c1ccc2nsnc2c1 (stereo not shown)
Outgoing: 5.66

Incoming: Try the compound COc1ccc(C(Nc2ccc3[nH]cnc3c2)c2nnnn2CC2CCCO2)cc1F (stereo not shown)
Outgoing: 5.07

Incoming: // repeat for OCc1ccc(C(Nc2ccc3[nH]cnc3c2)c2nnnn2Cc2ccc(Cl)cc2)o1 (stereo not shown) and report
Outgoing: 5.31

Incoming: Next entry: Brc1cc(Br)cc(C(Nc2ccc3[nH]cnc3c2)c2nnnn2C2CCCCC2)c1 (stereo not shown)
Outgoing: 5.51

Incoming: How about COc1ccc(C(Nc2ccc3[nH]cnc3c2)c2nnnn2CC(=O)N2CCc3ccccc3C2)cc1 (stereo not shown) ?
Outgoing: 5.40

Incoming: Another compound to look at: c1ccc(Oc2ccc(-n3nnnc3C(Nc3ccc4[nH]cnc4c3)c3ccc4c(c3)OCO4)cc2)cc1 (stereo not shown)
Outgoing: 5.40

Incoming: Proceed to CCCOc1cccc(C(Nc2ccc3[nH]cnc3c2)c2nnnn2C2CCCCC2C(=O)OCC)c1 (stereo not shown)
Outgoing: 5.66

Incoming: Continue with O=C1CCCN1CCCn1nnnc1C(Nc1ccc2[nH]cnc2c1)c1cc(Br)cc(Br)c1 (stereo not shown)
Outgoing: 5.24

The reported measurements were obtained from patent US7741354B2.
